conditions: in isobutyl acetate, 318.15 K
Quantity: solubility (mole fraction)

Any idea what solubility (mole fraction) was measured for "O=C1OC(=O)[C@H]2[C@@H]1[C@@H]1C=C[C@H]2O1" ?
0.0283

---

settings: in 1,4-dioxane, 318.15 K
Quantity: solubility (mole fraction)
I'd appreciate a reply containing only the number, no unit.

Any idea what solubility (mole fraction) was measured for "O=C1OC(=O)[C@H]2[C@@H]1[C@@H]1C=C[C@H]2O1" ?
0.0857

---

settings: in acetone, 283.15 K
Quantity: solubility (mole fraction)
I'd appreciate a reply containing only the number, no unit.

Any idea what solubility (mole fraction) was measured for "O=C1OC(=O)[C@H]2[C@@H]1[C@@H]1C=C[C@H]2O1" ?
0.0434

---

conditions: in isobutyl acetate, 303.15 K
Quantity: solubility (mole fraction)
I'd appreciate a reply containing only the number, no unit.

Any idea what solubility (mole fraction) was measured for "O=C1OC(=O)[C@H]2[C@@H]1[C@@H]1C=C[C@H]2O1" ?
0.0189

---

conditions: in methyl acetate, 308.15 K
Quantity: solubility (mole fraction)
I'd appreciate a reply containing only the number, no unit.

Any idea what solubility (mole fraction) was measured for "O=C1OC(=O)[C@H]2[C@@H]1[C@@H]1C=C[C@H]2O1" ?
0.0582

---

conditions: in isopropyl acetate, 278.15 K
Quantity: solubility (mole fraction)
I'd appreciate a reply containing only the number, no unit.

Any idea what solubility (mole fraction) was measured for "O=C1OC(=O)[C@H]2[C@@H]1[C@@H]1C=C[C@H]2O1" ?
0.0101

---

conditions: in isobutyl acetate, 298.15 K
Quantity: solubility (mole fraction)

Any idea what solubility (mole fraction) was measured for "O=C1OC(=O)[C@H]2[C@@H]1[C@@H]1C=C[C@H]2O1" ?
0.0165

---

settings: in n-propyl acetate, 293.15 K
Quantity: solubility (mole fraction)
I'd appreciate a reply containing only the number, no unit.

Any idea what solubility (mole fraction) was measured for "O=C1OC(=O)[C@H]2[C@@H]1[C@@H]1C=C[C@H]2O1" ?
0.0179

---

details: in n-pentyl acetate, 318.15 K
Quantity: solubility (mole fraction)
I'd appreciate a reply containing only the number, no unit.

Any idea what solubility (mole fraction) was measured for "O=C1OC(=O)[C@H]2[C@@H]1[C@@H]1C=C[C@H]2O1" ?
0.0231

---

settings: in ethyl acetate, 313.15 K
Quantity: solubility (mole fraction)

Any idea what solubility (mole fraction) was measured for "O=C1OC(=O)[C@H]2[C@@H]1[C@@H]1C=C[C@H]2O1" ?
0.0414

---

details: in n-propyl acetate, 308.15 K
Quantity: solubility (mole fraction)
I'd appreciate a reply containing only the number, no unit.

Any idea what solubility (mole fraction) was measured for "O=C1OC(=O)[C@H]2[C@@H]1[C@@H]1C=C[C@H]2O1" ?
0.0277

---

conditions: in ethyl acetate, 293.15 K
Quantity: solubility (mole fraction)
I'd appreciate a reply containing only the number, no unit.

Any idea what solubility (mole fraction) was measured for "O=C1OC(=O)[C@H]2[C@@H]1[C@@H]1C=C[C@H]2O1" ?
0.0234

---

conditions: in 1,4-dioxane, 323.15 K
Quantity: solubility (mole fraction)
I'd appreciate a reply containing only the number, no unit.

Any idea what solubility (mole fraction) was measured for "O=C1OC(=O)[C@H]2[C@@H]1[C@@H]1C=C[C@H]2O1" ?
0.134

---

settings: in n-butyl acetate, 318.15 K
Quantity: solubility (mole fraction)
I'd appreciate a reply containing only the number, no unit.

Any idea what solubility (mole fraction) was measured for "O=C1OC(=O)[C@H]2[C@@H]1[C@@H]1C=C[C@H]2O1" ?
0.0285

---

details: in 1,4-dioxane, 303.15 K
Quantity: solubility (mole fraction)

Any idea what solubility (mole fraction) was measured for "O=C1OC(=O)[C@H]2[C@@H]1[C@@H]1C=C[C@H]2O1" ?
0.0414

---

conditions: in n-propyl acetate, 318.15 K
Quantity: solubility (mole fraction)
I'd appreciate a reply containing only the number, no unit.

Any idea what solubility (mole fraction) was measured for "O=C1OC(=O)[C@H]2[C@@H]1[C@@H]1C=C[C@H]2O1" ?
0.0388

---

conditions: in NMP, 313.15 K
Quantity: solubility (mole fraction)

Any idea what solubility (mole fraction) was measured for "O=C1OC(=O)[C@H]2[C@@H]1[C@@H]1C=C[C@H]2O1" ?
0.235

---

conditions: in n-pentyl acetate, 298.15 K
Quantity: solubility (mole fraction)
I'd appreciate a reply containing only the number, no unit.

Any idea what solubility (mole fraction) was measured for "O=C1OC(=O)[C@H]2[C@@H]1[C@@H]1C=C[C@H]2O1" ?
0.0137

---

details: in n-pentyl acetate, 293.15 K
Quantity: solubility (mole fraction)
I'd appreciate a reply containing only the number, no unit.

Any idea what solubility (mole fraction) was measured for "O=C1OC(=O)[C@H]2[C@@H]1[C@@H]1C=C[C@H]2O1" ?
0.012

---

settings: in n-butyl acetate, 293.15 K
Quantity: solubility (mole fraction)
I'd appreciate a reply containing only the number, no unit.

Any idea what solubility (mole fraction) was measured for "O=C1OC(=O)[C@H]2[C@@H]1[C@@H]1C=C[C@H]2O1" ?
0.0149

---

settings: in n-propyl acetate, 288.15 K
Quantity: solubility (mole fraction)

Any idea what solubility (mole fraction) was measured for "O=C1OC(=O)[C@H]2[C@@H]1[C@@H]1C=C[C@H]2O1" ?
0.0159

---

details: in isobutyl acetate, 288.15 K
Quantity: solubility (mole fraction)

Any idea what solubility (mole fraction) was measured for "O=C1OC(=O)[C@H]2[C@@H]1[C@@H]1C=C[C@H]2O1" ?
0.0122

---

conditions: in isopentyl acetate, 318.15 K
Quantity: solubility (mole fraction)
I'd appreciate a reply containing only the number, no unit.

Any idea what solubility (mole fraction) was measured for "O=C1OC(=O)[C@H]2[C@@H]1[C@@H]1C=C[C@H]2O1" ?
0.0214

---

settings: in DMF, 293.15 K
Quantity: solubility (mole fraction)
I'd appreciate a reply containing only the number, no unit.

Any idea what solubility (mole fraction) was measured for "O=C1OC(=O)[C@H]2[C@@H]1[C@@H]1C=C[C@H]2O1" ?
0.138

---

conditions: in acetonitrile, 318.15 K
Quantity: solubility (mole fraction)
I'd appreciate a reply containing only the number, no unit.

Any idea what solubility (mole fraction) was measured for "O=C1OC(=O)[C@H]2[C@@H]1[C@@H]1C=C[C@H]2O1" ?
0.0887

---

settings: in NMP, 308.15 K
Quantity: solubility (mole fraction)
I'd appreciate a reply containing only the number, no unit.

Any idea what solubility (mole fraction) was measured for "O=C1OC(=O)[C@H]2[C@@H]1[C@@H]1C=C[C@H]2O1" ?
0.211

---

conditions: in NMP, 303.15 K
Quantity: solubility (mole fraction)
I'd appreciate a reply containing only the number, no unit.

Any idea what solubility (mole fraction) was measured for "O=C1OC(=O)[C@H]2[C@@H]1[C@@H]1C=C[C@H]2O1" ?
0.199

---

settings: in isobutyl acetate, 293.15 K
Quantity: solubility (mole fraction)

Any idea what solubility (mole fraction) was measured for "O=C1OC(=O)[C@H]2[C@@H]1[C@@H]1C=C[C@H]2O1" ?
0.0143

---

settings: in n-propyl acetate, 303.15 K
Quantity: solubility (mole fraction)

Any idea what solubility (mole fraction) was measured for "O=C1OC(=O)[C@H]2[C@@H]1[C@@H]1C=C[C@H]2O1" ?
0.0244

---

conditions: in acetonitrile, 308.15 K
Quantity: solubility (mole fraction)

Any idea what solubility (mole fraction) was measured for "O=C1OC(=O)[C@H]2[C@@H]1[C@@H]1C=C[C@H]2O1" ?
0.0667

---

settings: in n-propyl acetate, 298.15 K
Quantity: solubility (mole fraction)
I'd appreciate a reply containing only the number, no unit.

Any idea what solubility (mole fraction) was measured for "O=C1OC(=O)[C@H]2[C@@H]1[C@@H]1C=C[C@H]2O1" ?
0.021

---

conditions: in isobutyl acetate, 308.15 K
Quantity: solubility (mole fraction)
I'd appreciate a reply containing only the number, no unit.

Any idea what solubility (mole fraction) was measured for "O=C1OC(=O)[C@H]2[C@@H]1[C@@H]1C=C[C@H]2O1" ?
0.022

---

settings: in methyl acetate, 318.15 K
Quantity: solubility (mole fraction)

Any idea what solubility (mole fraction) was measured for "O=C1OC(=O)[C@H]2[C@@H]1[C@@H]1C=C[C@H]2O1" ?
0.0806

---

conditions: in isopropyl acetate, 323.15 K
Quantity: solubility (mole fraction)
I'd appreciate a reply containing only the number, no unit.

Any idea what solubility (mole fraction) was measured for "O=C1OC(=O)[C@H]2[C@@H]1[C@@H]1C=C[C@H]2O1" ?
0.0395

---

settings: in ethyl acetate, 283.15 K
Quantity: solubility (mole fraction)

Any idea what solubility (mole fraction) was measured for "O=C1OC(=O)[C@H]2[C@@H]1[C@@H]1C=C[C@H]2O1" ?
0.0179
